# measured target: M2 protein of influenza A/Hong Kong/483/97 (H5N1) (influenza A virus A/Hong Kong/483/97 (H5N1))
Listed next: entries and their corresponding FACS M2-HK MFI.

binder: 3260_D19 (antibody, V domains shown) VH: DMQLVESGGGLVPPGGSLRLSCAASGFSVSDNYINWVRQAPGKGLDWVSVFYSADRTSYADSVKGRFTVSSHDSKNTVYLQMNSLRAEDTAVYYCARVQKSYYGMDVWGQGTTVTVSS VL: GIQMTQSPSSLSASVGDRVTITCRASQSISRYLNWYLQKPGKAPKLLISGASSLQSGVPSRFSGTGSGTEFTLTISSLQPEDFATYYCQQTFSIPLFGQGTKVEIK
FACS M2-HK MFI [MFI]: 846

binder: 3259_J21 (antibody, V domains shown) VH: QVQLQESGPRVVRPSETLSLTCTVSGGSISSYNWIWIRQPPGKGLEWIGHIYDYGRTFYNSSLQSRPTISVDASKNQLSLRLTSVTASDTAVYYCARPLGILHYYAMDLWGQGTTVTVSS VL: DIQMTQSPLSVSVSVGDRVTIACRASQSIDKFLNWYQQKPGKAPKLLIYGASNLHSGAPSRFSASGSGTDFTLTITNIQTEDFATYLCQQSFSVPAFGGGTKVEIK
FACS M2-HK MFI [MFI]: 1670

binder: 3139_P23 (antibody, V domains shown) VH: QVQLQESGPRLVKPSESLSLTCTVSGGSISNSFWGWIRQPPGEGLEWIGYVYNSGNTKYNPSLKSRVTISRDTSKSQLYMKLRSVTAADTAVYYCARHDDASHGYSISWGHGTLVTVSS VL: DIQMTQSPSSLSASVGDRVTITCRASQTISTYLNWYQQKSGKAPKLLIYAASGLQSGVPSRFSGSGSGTDFTLTISSLQPEDFATYFCQQSYNTPLTFGQGTKVEIK
FACS M2-HK MFI [MFI]: 110
